For each of the binders below, state its binding affinity ratio (IC50 of standard peptide / IC50 of test peptide).
Assay system: HLA-A*0201 (human)
Measurement protocol: competition with 125I-labelled standard peptide for purified HLA, gel filtration
Write no unit; give the number alone.

[in] Returns the measured binding affinity ratio (IC50 of standard peptide / IC50 of test peptide) for the input binder. Input: PLYNMSLL (modifications not checked) [Kallikrein 99 PLYNMSLL]
[out] 0.0002

[in] Note, next up: PAELTDAV (modifications not checked) [PSA 125 PAELTDAV]
[out] -0.0001

[in] Note, next up: NVIGTLRGAV (modifications not checked) [PSM 357 …]
[out] 0.0001

[in] Note, next up: PAKITDVVKVL (modifications not checked) [Kallikrein 129 …]
[out] 0.0002
